Test system: PXR homodimer (NR concentration 270 nM)
Assay: PBM binding z-score (relative to random genomic background probes); higher = stronger binding; sequences stand for … in GC…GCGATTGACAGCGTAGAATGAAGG
Each entry below carries its recorded PBM binding z-score.
quantity.name: PBM binding z-score

{"ordered.residues": "ATCGAAAGCTCGAAGGTGAGTATACCCACCCGAA", "quantity.name": "PBM binding z-score", "recorded.value": -0.343}
{"ordered.residues": "GGAACGAGGGAAAAGTTGATAGCATCTGTCGACG", "quantity.name": "PBM binding z-score", "recorded.value": -0.343}
{"ordered.residues": "CTACCAAGGTGAACAACGTCGTTGATTACTATTC", "quantity.name": "PBM binding z-score", "recorded.value": -0.322}
{"ordered.residues": "CAAACTAGGTCAAGAAAGGTCAAAGTCGAATGAC", "quantity.name": "PBM binding z-score", "recorded.value": 3.25}
{"ordered.residues": "CCGACTGGGGCAAGGATACCATAACGCACAGCCA", "quantity.name": "PBM binding z-score", "recorded.value": -0.593}
{"ordered.residues": "CCTACTGGGCCAAAAACGTCATTGATGCCGATAA", "quantity.name": "PBM binding z-score", "recorded.value": -0.449}
{"ordered.residues": "GATACAGGGTCAGCTAGAGGCCAGAGTTTGGAAA", "quantity.name": "PBM binding z-score", "recorded.value": 0.149}
{"ordered.residues": "TCTAGTTGGTCAAAGGTCACACCCTCGAAATGCG", "quantity.name": "PBM binding z-score", "recorded.value": 2.22}
{"ordered.residues": "GCTCGGAGGACAAGGCCAGAGCTTTGTCCGTAGA", "quantity.name": "PBM binding z-score", "recorded.value": -0.879}
{"ordered.residues": "CCTAGCAGGCCAATCTGGGTCACTAAAGGCTTGA", "quantity.name": "PBM binding z-score", "recorded.value": -0.597}
{"ordered.residues": "ATACCAAGGGGATCGTGAGGTCGTTGATACTAAC", "quantity.name": "PBM binding z-score", "recorded.value": 0.87}
{"ordered.residues": "ATACCAAGGTGATCGTGAGGTCGTTGAAACTAAC", "quantity.name": "PBM binding z-score", "recorded.value": 1.61}
{"ordered.residues": "CCTTACGGGTGACTGACAGGTTATAGCATTTGGA", "quantity.name": "PBM binding z-score", "recorded.value": -0.0252}
{"ordered.residues": "CAGCCTAGGTCAGGGCGAGTATAGGAGGAACGTT", "quantity.name": "PBM binding z-score", "recorded.value": -0.665}
{"ordered.residues": "ACTTACGGGTCAACGAGGTTATAGAACGCGTATA", "quantity.name": "PBM binding z-score", "recorded.value": 2.8}
{"ordered.residues": "GCAGACAGGTGAAACGCAGGTAACGCAGGGTGGC", "quantity.name": "PBM binding z-score", "recorded.value": -0.857}
{"ordered.residues": "CGAACTAGGCCATTGACAGGACAGTGAATAGTAA", "quantity.name": "PBM binding z-score", "recorded.value": 0.0591}
{"ordered.residues": "GCTTGTAGATCAAGGTTAAGAAGGACTAAGCTAA", "quantity.name": "PBM binding z-score", "recorded.value": -0.0751}
{"ordered.residues": "CTCGAAAGGTCGGTTGAGGTAAGTATACGGATAA", "quantity.name": "PBM binding z-score", "recorded.value": 0.12}
{"ordered.residues": "CCTTACGGGTCACAAGGTTATAGCACGACGAGCG", "quantity.name": "PBM binding z-score", "recorded.value": 0.686}
{"ordered.residues": "ATATGTAGGTTACATCCGGGACATTCAGGCTATG", "quantity.name": "PBM binding z-score", "recorded.value": 0.5}
{"ordered.residues": "CCTAGTTGGTCACGGTCACACACGCTATAGGTAC", "quantity.name": "PBM binding z-score", "recorded.value": 0.636}
{"ordered.residues": "CGAACTAGGTCAGAACAGGACAATGAAGGATGAT", "quantity.name": "PBM binding z-score", "recorded.value": 0.343}
{"ordered.residues": "GCAGACAGGTGAAAGGCAGGTAACTCAGGGTGGC", "quantity.name": "PBM binding z-score", "recorded.value": -0.0558}
{"ordered.residues": "GGAACGAGGGCAAGATGATAGCAGAGTTTGATGG", "quantity.name": "PBM binding z-score", "recorded.value": 0.432}
{"ordered.residues": "TCATATAGGTAATACAGGGGAAAGTCGGCATCTA", "quantity.name": "PBM binding z-score", "recorded.value": 0.581}

* * *

Tested on: THRa homodimer (NR concentration 90 nM)
Experiment: PBM binding z-score (relative to random genomic background probes); higher = stronger binding; sequences stand for … in GC…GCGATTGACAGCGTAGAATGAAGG
Please map values of PBM binding z-score to classes as shown: lower (below 0.4), middle (0.4 to below 1), upper (1 or more)

{"ordered.residues": "TCTTGTGGATCAAAGGTTAAGAAAGCCGAAGCCT", "answer.label": "lower"}
{"ordered.residues": "TCATATAGGTAAACAGGTGAAAGTGCGTAAGTTA", "answer.label": "middle"}
{"ordered.residues": "CAGCCCAGGTCAGGGCCAGTATAGGAGGAACGTT", "answer.label": "upper"}
{"ordered.residues": "CAAACTAGGTCACAGAGGTCAAAGCCCGTGCGTA", "answer.label": "upper"}
{"ordered.residues": "CCGAGTAGGTTATAGGGCATTCAGGCAACGGTGA", "answer.label": "lower"}
{"ordered.residues": "ATCTCTAGGTAACAAGTTGAGTGAAAGAGAGGAC", "answer.label": "middle"}
{"ordered.residues": "ATACCAAGGTGAACGTGAGGTCGTTGATACTAAC", "answer.label": "upper"}
{"ordered.residues": "ACTAGCAGGCCAAGGGTCCCTCAAGATTAGTCCG", "answer.label": "lower"}
{"ordered.residues": "TCTAGTTCGTCAAAGGTCACACACTCGAAATGCG", "answer.label": "upper"}
{"ordered.residues": "AGAATGAGGTTACCAAAGATCACGGAAACGCTTG", "answer.label": "middle"}
{"ordered.residues": "AGAATGAGGTTACCAAAGATCTGGGAAACGCTTG", "answer.label": "middle"}

* * *

Tested on: LXRa:RXRa (NR concentration 270 nM, RXRa partner concentration 90 nM)
Test: PBM binding z-score (relative to random genomic background probes); higher = stronger binding; sequences stand for … in GC…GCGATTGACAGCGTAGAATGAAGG
Each entry below carries its recorded PBM binding z-score.

{"ordered.residues": "GGAACGAGGGCACAGTTGATAGCATCTGTCGACG", "PBM binding z-score": 0.136}
{"ordered.residues": "ATCTCTATGTAACCAAGTTCAGTGAATGCCGAAC", "PBM binding z-score": 0.344}
{"ordered.residues": "AGAATGAGGTGACCAAAGATCAGGGAAACGCTTG", "PBM binding z-score": 0.957}
{"ordered.residues": "GCTAGTTGGTCAGTAAAGGGTCACACACCGGTCG", "PBM binding z-score": 2.52}
{"ordered.residues": "ATAACGAGGGCACGCTGAGTTGATAGCAGAGTAG", "PBM binding z-score": 1.11}
{"ordered.residues": "CCTTACGTGTCAAGGTTATAGCACGGGTGGTACG", "PBM binding z-score": 0.929}
{"ordered.residues": "ATCGAAAGGTCGTGGGGTGAGTATACAGAAAGGC", "PBM binding z-score": 4.88}
{"ordered.residues": "CGTCCAAGGTCAAGGTCAGTGAAAGAGACTCGAA", "PBM binding z-score": 5.66}
{"ordered.residues": "GGAACGAGGGCATCCGAGTTGATAGCATGGCGAT", "PBM binding z-score": 0.897}
{"ordered.residues": "CGAACGAGGGGATGAGTTGATAGCAAATGCCGAT", "PBM binding z-score": -0.222}
{"ordered.residues": "CCAACTAGGTCACAGAGGTCAAAGTCCGTGCGTA", "PBM binding z-score": 6.68}
{"ordered.residues": "CCTCGGAGGACAAAAGGTCAGAGCTGTCCGCTTT", "PBM binding z-score": 4.52}
{"ordered.residues": "GCGACTGGGGCAAAGCTGGTTACCATAAGGTTGG", "PBM binding z-score": -0.411}
{"ordered.residues": "TCTATTAGTTTATTAGGGCAACCGAAACAGCGGA", "PBM binding z-score": 0.997}
{"ordered.residues": "CGTCCAAGGTCAGACAGGTCAGTGAATGCCGAGT", "PBM binding z-score": 4.15}
{"ordered.residues": "ACAACGAGGGCACGCTGAGTTGATAGCAGAGTAG", "PBM binding z-score": 0.503}
{"ordered.residues": "GCTTGTAGATAAAGGTTAAGAAAGACTAAGCTAA", "PBM binding z-score": 2.06}
{"ordered.residues": "AACTCTAGGTAAAGATAGTTCAGTGAATGCAAAT", "PBM binding z-score": 3.96}
{"ordered.residues": "GTTTACGGGTCAAAGGTTATAGCATGAATAGAAT", "PBM binding z-score": 5.94}
{"ordered.residues": "CCTTACGGGTCACTGACAGGTTAGAGCATTTGGA", "PBM binding z-score": 3.9}
{"ordered.residues": "ATGTCTAGGTAAAAGTTCAGTGAATCCCGAGGAT", "PBM binding z-score": 1.33}
{"ordered.residues": "CAAACTAGGTCAAAGATCAAAGTCGAGCCAACCA", "PBM binding z-score": 3.87}
{"ordered.residues": "TCTGCTAGGTCAGTTGGACAGCTAACGAGCTGCC", "PBM binding z-score": 0.508}
{"ordered.residues": "CCGACTGGGGCATAAGGCTACCATAAGCCAGCCC", "PBM binding z-score": -0.169}
{"ordered.residues": "CGTCAAAGTTCAGCTAAGGTAACGTAAAGCACGC", "PBM binding z-score": 4.17}
{"ordered.residues": "CAAACTAGGTCACGACAGGTCAAAGTCGAATGAC", "PBM binding z-score": 7.66}
{"ordered.residues": "CCTAGCAGGCCAATCTGGGTCACTCAAGGCTTGA", "PBM binding z-score": 1.42}
{"ordered.residues": "GCTGCTAGGTCAGGTTGGTCAGCTAGCGGGTACG", "PBM binding z-score": 0.736}
{"ordered.residues": "ACTATTAGTTGAGACGAGGGCTACCGATAGGTTG", "PBM binding z-score": -0.0365}
{"ordered.residues": "TCATATAGGTAAACAGGTGGAAGTCCGTAAGTTA", "PBM binding z-score": 0.64}
{"ordered.residues": "AATAGCAGGCCAAGTTTGGGTCACTCAAACAAAG", "PBM binding z-score": 0.399}
{"ordered.residues": "CCTCCTAGGTCAATGGTCAGCTAAAGCAGCTCGC", "PBM binding z-score": 2.46}
{"ordered.residues": "CCTAGTTGGTCAGGAGGACACACACCGGATATGA", "PBM binding z-score": 0.0708}
{"ordered.residues": "CGAACTAGGTCAGAACAGAACAGTGAAGGATGAT", "PBM binding z-score": 0.278}
{"ordered.residues": "ACAGACAGGTGATGAAGGTAACTCGGGCTATCAT", "PBM binding z-score": 0.107}
{"ordered.residues": "CCCCGGAGGACAACAGGAGGTCAGAGCTGCCAGA", "PBM binding z-score": 2.55}
{"ordered.residues": "GCATATAGGCAATACAAGGTGAAAGTCCGATTGT", "PBM binding z-score": 0.0524}
{"ordered.residues": "TCATATATGTAAAAGGTGAAAGTCGGTGTGGTAA", "PBM binding z-score": 1.25}
{"ordered.residues": "GTACCAGGGTGAATAGGTCGTTGATGAGTAGGCG", "PBM binding z-score": 0.813}
{"ordered.residues": "CCGACTGGGGCAAAGGATACCATACTCAGTACGA", "PBM binding z-score": -0.501}
{"ordered.residues": "ACTCGGAGAACAAAGGTCAGAGCTACGCCAGTGA", "PBM binding z-score": 3.85}
{"ordered.residues": "GCTAGCTGGCCATTTGGGTCACTCAATGACGGGC", "PBM binding z-score": -0.387}
{"ordered.residues": "TCGAGTAGGTTAGTGGCATTCAGAATGGCGTCGA", "PBM binding z-score": -0.347}
{"ordered.residues": "ATCGAAAGGTCGAGGTGTGTATAGAGAAAGGGAA", "PBM binding z-score": 3.39}
{"ordered.residues": "TCTTGTAGTTCAAGCAGGTTAAGAAAGCCTGAGT", "PBM binding z-score": 1.72}
{"ordered.residues": "ACTTATGGGTCAACGAGGTTATAGCACGCGTATA", "PBM binding z-score": 4.47}
{"ordered.residues": "TTACCAAGGTGAGCTGACGTCGTTGATCCAACTC", "PBM binding z-score": -0.397}
{"ordered.residues": "ATCGAAAGGGCGACGAGGTGAGTATACACCGTTT", "PBM binding z-score": 0.222}
{"ordered.residues": "ACAGACAGGAGAGTGAAGGTAACTCAGCTGGACG", "PBM binding z-score": -0.127}
{"ordered.residues": "ACTAGCAGGCCCAGTTTGGGTCACTCAAACAAAG", "PBM binding z-score": -0.448}
{"ordered.residues": "CCTCACGGGTCAAGGTTATAGCACGGGTGGTACG", "PBM binding z-score": 3.42}
